# Test system: SF-295 CNS
# Test: NCI-60 one-dose screen, 48 h
# Condition Summary: 10 µM unless noted
The panel holds about 83,000 compounds, 20% with a hit somewhere; the sample as a whole holds those more often. The source made the active and inactive calls. The calls were made as follows: active = growth percent below 10; inactive = the rest.
Possible outcomes: active, inactive

{"Compound": "FCc1nc2nc(Cl)c(Cl)nc2[nH]1", "Assigned Class": "inactive"}
{"Compound": "C#Cc1cccc(NC(=O)Nc2cccc(N=C=S)c2)c1", "Assigned Class": "inactive"}
{"Compound": "COc1ccc(NC(=O)c2sc3nc(C)c(C(=O)CCc4cccc(OC)c4)cc3c2N)cc1", "Assigned Class": "inactive"}
{"Compound": "N#C/C(=C\\c1ccc(Br)cc1)n1nnc2cccc(F)c21", "Assigned Class": "inactive"}
{"Compound": "O=S(=O)(NCCCNc1nccc(-c2c(-c3cccc(O)c3)nc3occn23)n1)c1ccc(Br)cc1", "Assigned Class": "inactive"}
{"Compound": "COc1ccc(C(=O)c2cc(C)c(OC)c(C)c2)c(OC)c1O", "Assigned Class": "inactive"}
{"Compound": "Clc1ccc(C2CC(c3cccc(Nc4ccncc4)c3)=NN2c2ccccc2)cc1 (stereo not drawn)", "Assigned Class": "inactive"}
{"Compound": "c1ccc(C2CC(c3cccc(Nc4ccncc4)c3)=NN2c2ccccc2)cc1 (stereo not drawn)", "Assigned Class": "inactive"}
{"Compound": "COc1cc(Nc2cc(O)c3c(=O)cc(-c4ccccc4)oc3c2)cc(OC)c1", "Assigned Class": "inactive"}
{"Compound": "COc1ccc(-n2cc(-c3cc(OC)c(OC)c(OC)c3)n(C(C)=O)c2=O)cc1", "Assigned Class": "inactive"}
{"Compound": "CCCCCCc1nc2nc(Cl)c(Cl)nc2[nH]1", "Assigned Class": "inactive"}
{"Compound": "c1cnc2nc3c(cc2c1)oc1ccccc13", "Assigned Class": "inactive"}
{"Compound": "C[C@@H]1CN(Cc2ccc(/C=C/c3n[nH]c4ccc5nc(-c6cn[nH]c6C(F)(F)F)c6c(c5c34)CCCC6)cc2)C[C@H](C)O1", "Assigned Class": "inactive"}
{"Compound": "Cn1/c(=N/NC(N)=S)ccc2ccccc21", "Assigned Class": "inactive"}
{"Compound": "Cn1c(=O)c2[nH]c(CCCc3nc4c([nH]3)c(=O)n(C)c(=O)n4C)nc2n(C)c1=O", "Assigned Class": "inactive"}
{"Compound": "O=C(N=Nc1c(O)[nH]c2ccc(F)cc12)c1cc2ccccc2[nH]1", "Assigned Class": "inactive"}
{"Compound": "O=C(Nc1ccc(Nc2ncccn2)cc1)NC1C=c2ccccc2=CC1 (stereo not drawn)", "Assigned Class": "inactive"}
{"Compound": "O=C(Nc1ccc2ncnc(Nc3ccc(Oc4cccc(F)c4)c(Cl)c3)c2c1)c1ccc(CNCCO)cc1", "Assigned Class": "inactive"}
{"Compound": "O=C1Nc2ccccc2/C1=N/c1nc(-c2ccc(Cl)cc2)cs1", "Assigned Class": "inactive"}
{"Compound": "O=C(OC(OC(=O)c1cc(Cl)cc(Cl)c1)c1cccc2ccccc12)c1ccccc1 (stereo not drawn)", "Assigned Class": "inactive"}
{"Compound": "CN(C)C(=O)c1cc2cnc(Nc3ccc(-c4csc5c(=O)cc(N6CCOCC6)oc45)cc3)nc2n1C1CCCC1", "Assigned Class": "active"}
{"Compound": "COc1cc(NCC(O)CN(CC(C)C)C2CCCC2)c2ncccc2c1 (stereo not drawn)", "Assigned Class": "inactive"}
{"Compound": "O=C1C(=O)c2c(nc3ncccn23)-c2ccccc21", "Assigned Class": "active"}
{"Compound": "COC(=O)N[C@H]1CCc2cc(OC)c(OC)c(OC)c2-c2ccc(SC)c(=O)cc21", "Assigned Class": "active"}
{"Compound": "COc1cc2c(cc1[N+](=O)[O-])-c1ccc([N+](=O)[O-])cc1/C2=N\\O", "Assigned Class": "inactive"}
{"Compound": "[2H]C1([2H])NC([2H])([2H])C([2H])([2H])N(c2ccc(Nc3ncc4cc(C(=O)N(C)C)n(C5CCCC5)c4n3)nc2)C1([2H])[2H]", "Assigned Class": "inactive"}
{"Compound": "COC(=O)Nc1ccc(NC(=O)OC)cc1", "Assigned Class": "inactive"}
{"Compound": "O=C(Cc1ccc(/C=C/C(=O)c2ncc[nH]2)cc1)Nc1ccc(C(F)(F)F)cc1", "Assigned Class": "inactive"}
{"Compound": "C=C1C(=O)O[C@H]2[C@H]1CC/C(COC(=O)/C=C/c1c[nH]c3ccccc13)=C\\CC[C@@]1(C)O[C@@H]21", "Assigned Class": "inactive"}
{"Compound": "CCN1C(=O)N(CC)C2NC(SC)=NC21 (stereo not drawn)", "Assigned Class": "inactive"}
{"Compound": "COc1ccc(-c2nn(Cc3ccccc3)c3c2-c2oncc2CC3)cc1OC", "Assigned Class": "inactive"}
{"Compound": "Cc1c(C(=O)NO)sc2ncnc(Nc3ccc(NC(=S)Nc4ccccc4)cc3)c12", "Assigned Class": "inactive"}
{"Compound": "COc1ccc(/C(C)=N/NC(=O)CSc2nc3ccccc3c(=O)n2Cc2ccc(S(N)(=O)=O)cc2)c(OC)c1", "Assigned Class": "inactive"}
